measurementTarget: Eis_Mtb (Mycobacterium tuberculosis)
Sequence (P9WFK7 2-402 limits assumed): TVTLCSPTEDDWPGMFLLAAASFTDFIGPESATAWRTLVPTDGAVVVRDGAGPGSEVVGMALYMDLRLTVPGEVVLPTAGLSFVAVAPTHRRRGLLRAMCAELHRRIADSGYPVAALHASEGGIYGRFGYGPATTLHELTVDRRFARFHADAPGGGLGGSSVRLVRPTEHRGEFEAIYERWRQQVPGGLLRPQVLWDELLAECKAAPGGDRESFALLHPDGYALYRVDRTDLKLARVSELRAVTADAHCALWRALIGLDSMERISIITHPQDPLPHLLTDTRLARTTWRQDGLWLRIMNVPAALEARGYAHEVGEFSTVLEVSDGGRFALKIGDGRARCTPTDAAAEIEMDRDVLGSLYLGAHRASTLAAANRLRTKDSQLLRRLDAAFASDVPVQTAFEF
Format: biochemical
experimentalEndpoint: Eis inhibition in the HTS (in words)

1) COc1ccc(N(C)S(=O)(=O)c2ccc3[nH]c(=O)c(=O)[nH]c3c2)cc1 : inactive
2) Cc1ccc(N(C)S(=O)(=O)c2ccc3[nH]c(=O)c(=O)[nH]c3c2)cc1 : inactive
